# reported Flow-through K; entries follow
Biological target: T1, BMP-12 (UniProt Q7Z4P5 322-450, limits assumed)
T1 construct: also called BMP12/GDF7
T1 sequence (looked up): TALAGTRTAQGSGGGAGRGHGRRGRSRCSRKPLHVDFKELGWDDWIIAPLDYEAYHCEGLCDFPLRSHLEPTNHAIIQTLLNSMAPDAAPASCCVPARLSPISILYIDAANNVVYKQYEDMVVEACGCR
Assay: peptide resin, filter plate; load 1: 50 mM Acetic Acid, 0.1 M NaCl, pH 2.9
No end group written: not given here.
Could you respond with only the numeric value?

Answer with reported Flow-through K of Ac-LYVSDVGWNDWIVK (not fully specified (residue 3); printed as Ac-LYV**SDVGWNDWIVK; also: ** after V3 not explained) [BMP2 C-trunc_2 peptide 746]
7

Answer with reported Flow-through K of Ac-VAPPGYHAFYSHGEK [BMP2 N-trunc_2 peptide 745]
1

Answer with reported Flow-through K of Ac-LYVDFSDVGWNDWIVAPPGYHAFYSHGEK [BMP2 Full peptide 747]
10
